Reference source: patent US9126947B2

System: ALK (Homo sapiens (Human)) | Read-out: IC50
Sequence (Q9UM73 19-1620): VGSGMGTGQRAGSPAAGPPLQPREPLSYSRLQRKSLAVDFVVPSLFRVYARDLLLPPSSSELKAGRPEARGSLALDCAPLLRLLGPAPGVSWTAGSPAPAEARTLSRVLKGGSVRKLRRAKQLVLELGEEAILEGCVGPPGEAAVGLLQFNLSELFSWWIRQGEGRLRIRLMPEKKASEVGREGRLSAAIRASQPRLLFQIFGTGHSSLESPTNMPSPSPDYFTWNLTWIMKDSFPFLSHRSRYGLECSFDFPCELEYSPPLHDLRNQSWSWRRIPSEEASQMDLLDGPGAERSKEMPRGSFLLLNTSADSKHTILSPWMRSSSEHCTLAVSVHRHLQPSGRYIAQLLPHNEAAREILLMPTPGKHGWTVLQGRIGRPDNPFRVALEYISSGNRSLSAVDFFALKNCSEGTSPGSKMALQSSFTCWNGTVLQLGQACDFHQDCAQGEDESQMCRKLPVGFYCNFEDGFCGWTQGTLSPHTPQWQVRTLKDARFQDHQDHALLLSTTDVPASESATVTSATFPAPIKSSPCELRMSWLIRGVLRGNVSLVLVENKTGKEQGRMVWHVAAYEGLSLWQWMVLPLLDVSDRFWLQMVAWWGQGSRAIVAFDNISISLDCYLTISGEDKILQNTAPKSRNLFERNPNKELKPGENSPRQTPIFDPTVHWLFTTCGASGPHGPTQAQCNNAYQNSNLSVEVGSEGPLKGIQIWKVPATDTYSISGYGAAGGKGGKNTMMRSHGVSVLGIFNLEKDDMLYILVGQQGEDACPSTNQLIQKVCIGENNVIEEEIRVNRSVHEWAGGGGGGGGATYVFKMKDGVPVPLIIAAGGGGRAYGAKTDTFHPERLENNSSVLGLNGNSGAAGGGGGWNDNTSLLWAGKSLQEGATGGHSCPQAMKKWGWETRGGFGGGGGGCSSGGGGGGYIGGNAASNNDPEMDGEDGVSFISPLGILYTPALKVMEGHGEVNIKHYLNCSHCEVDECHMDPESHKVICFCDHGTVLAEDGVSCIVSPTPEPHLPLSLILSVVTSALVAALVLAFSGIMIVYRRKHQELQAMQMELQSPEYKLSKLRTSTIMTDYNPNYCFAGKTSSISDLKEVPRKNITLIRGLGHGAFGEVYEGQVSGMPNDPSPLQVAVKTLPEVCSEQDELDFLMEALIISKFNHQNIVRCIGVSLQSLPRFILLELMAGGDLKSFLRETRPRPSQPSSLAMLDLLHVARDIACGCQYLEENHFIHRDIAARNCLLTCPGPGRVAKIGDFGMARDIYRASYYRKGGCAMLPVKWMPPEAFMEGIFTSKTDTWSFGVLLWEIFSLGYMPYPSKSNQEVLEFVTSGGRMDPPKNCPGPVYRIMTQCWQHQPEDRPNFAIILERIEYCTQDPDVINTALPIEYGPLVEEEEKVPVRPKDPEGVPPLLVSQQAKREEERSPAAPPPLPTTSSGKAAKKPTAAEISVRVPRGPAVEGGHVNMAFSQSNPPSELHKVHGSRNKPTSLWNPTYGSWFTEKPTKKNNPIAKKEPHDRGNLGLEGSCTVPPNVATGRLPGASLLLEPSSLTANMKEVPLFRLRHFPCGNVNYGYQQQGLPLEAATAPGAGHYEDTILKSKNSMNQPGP

[
  {
    "COMPOUND": "C[C@@H]1CN(C(=O)c2ccc(NC(=O)c3cc(O[C@H](C)c4c(Cl)ccc(F)c4Cl)c(N)nn3)cc2)C[C@H](C)N1",
    "IC50": "< 1 nM"
  },
  {
    "COMPOUND": "CC(Oc1cc(C(=O)Nc2ccc(N3CCOCC3)cc2)nnc1N)c1c(Cl)ccc(F)c1Cl (centres unmarked) [c, reference compound]",
    "IC50": "> 10 nM"
  },
  {
    "COMPOUND": "COc1ccc(NC(=O)c2cc(OC(C)c3c(Cl)ccc(F)c3Cl)c(N)nn2)cc1 (centres unmarked) [b, reference compound]",
    "IC50": "> 10 nM"
  },
  {
    "COMPOUND": "C[C@@H](Oc1cc(C(=O)Nc2ccc(C(=O)N3CCCN(C)CC3)cc2)nnc1N)c1c(Cl)ccc(F)c1Cl",
    "IC50": "< 1 nM"
  },
  {
    "COMPOUND": "CC(Oc1cc(C(=O)Nc2ccncc2)nnc1N)c1c(Cl)ccc(F)c1Cl (centres unmarked) [a, reference compound]",
    "IC50": "> 10 nM"
  }
]

====

System: c-Met (Homo sapiens (Human)) | Read-out: pIC50
Sequence (P08581 25-1390): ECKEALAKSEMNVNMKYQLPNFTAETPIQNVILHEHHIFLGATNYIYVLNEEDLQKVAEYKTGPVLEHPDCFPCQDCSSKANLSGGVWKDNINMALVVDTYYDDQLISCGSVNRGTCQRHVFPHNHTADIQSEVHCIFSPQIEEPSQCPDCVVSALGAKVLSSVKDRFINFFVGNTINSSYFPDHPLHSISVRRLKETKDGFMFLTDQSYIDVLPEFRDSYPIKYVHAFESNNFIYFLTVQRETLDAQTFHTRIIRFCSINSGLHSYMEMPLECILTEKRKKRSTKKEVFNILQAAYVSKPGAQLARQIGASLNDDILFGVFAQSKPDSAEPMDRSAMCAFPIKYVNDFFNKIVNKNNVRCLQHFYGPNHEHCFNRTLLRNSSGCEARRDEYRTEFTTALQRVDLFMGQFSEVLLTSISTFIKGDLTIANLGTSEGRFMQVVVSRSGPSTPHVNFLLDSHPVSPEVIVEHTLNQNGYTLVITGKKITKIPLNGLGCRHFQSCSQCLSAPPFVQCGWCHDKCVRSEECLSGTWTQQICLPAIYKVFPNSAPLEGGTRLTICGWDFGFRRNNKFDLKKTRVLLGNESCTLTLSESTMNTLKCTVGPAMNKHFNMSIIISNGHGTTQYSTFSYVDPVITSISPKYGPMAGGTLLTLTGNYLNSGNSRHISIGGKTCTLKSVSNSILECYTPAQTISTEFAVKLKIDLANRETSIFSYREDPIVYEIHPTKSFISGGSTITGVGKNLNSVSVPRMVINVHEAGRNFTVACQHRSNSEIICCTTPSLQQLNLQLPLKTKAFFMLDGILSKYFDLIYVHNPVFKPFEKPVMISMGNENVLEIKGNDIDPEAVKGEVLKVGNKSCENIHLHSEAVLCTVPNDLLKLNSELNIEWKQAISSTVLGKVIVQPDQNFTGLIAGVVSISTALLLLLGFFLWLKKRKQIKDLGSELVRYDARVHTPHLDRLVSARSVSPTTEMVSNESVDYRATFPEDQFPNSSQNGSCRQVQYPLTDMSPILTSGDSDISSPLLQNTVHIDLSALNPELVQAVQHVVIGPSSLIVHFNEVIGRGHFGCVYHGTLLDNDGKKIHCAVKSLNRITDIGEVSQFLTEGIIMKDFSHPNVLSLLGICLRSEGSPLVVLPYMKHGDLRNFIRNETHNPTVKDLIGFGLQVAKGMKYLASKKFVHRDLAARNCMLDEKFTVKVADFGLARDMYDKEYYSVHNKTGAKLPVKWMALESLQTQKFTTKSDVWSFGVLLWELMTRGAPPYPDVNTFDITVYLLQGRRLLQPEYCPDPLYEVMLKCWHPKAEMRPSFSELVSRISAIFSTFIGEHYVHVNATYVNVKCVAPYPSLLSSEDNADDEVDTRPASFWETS
pIC50: −log10 of the molar value.
OBSERVATION TYPE: pIC50

[
  {
    "COMPOUND": "COc1ccc(NC(=O)c2cc(OC(C)c3c(Cl)ccc(F)c3Cl)c(N)nn2)cc1 (stereo not drawn) [b, reference compound]",
    "TESTED ON": "c-Met (Homo sapiens (Human))",
    "OBSERVED": "> 7.70"
  },
  {
    "COMPOUND": "CC(Oc1cc(C(=O)Nc2ccncc2)nnc1N)c1c(Cl)ccc(F)c1Cl (stereo not drawn) [a, reference compound]",
    "TESTED ON": "c-Met (Homo sapiens (Human))",
    "OBSERVED": "> 7.70"
  },
  {
    "COMPOUND": "CC(Oc1cc(C(=O)Nc2ccc(N3CCOCC3)cc2)nnc1N)c1c(Cl)ccc(F)c1Cl (stereo not drawn) [c, reference compound]",
    "TESTED ON": "c-Met (Homo sapiens (Human))",
    "OBSERVED": "> 7.70"
  }
]
